study_target: UniProtKB P07477
Sequence (P07477 whole entry): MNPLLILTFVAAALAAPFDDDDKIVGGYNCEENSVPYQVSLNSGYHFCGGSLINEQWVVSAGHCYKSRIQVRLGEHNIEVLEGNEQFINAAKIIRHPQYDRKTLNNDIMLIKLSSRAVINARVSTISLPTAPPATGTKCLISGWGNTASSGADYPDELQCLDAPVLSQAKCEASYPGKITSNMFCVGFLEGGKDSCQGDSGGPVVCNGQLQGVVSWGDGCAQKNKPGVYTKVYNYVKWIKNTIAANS
assay_procedure: Compound was evaluated for in vitro inhibition of trypsin induced proteolysis at 1 mM concentration
Format: functional
quantity_measured: inhibition (%)
Report the figure in % without appending any unit label.

A selection of reference data follows.
INSERT INTO measurements (compound, quantity_measured, assay_result) VALUES
  ('CN/N=C/c1ccc2ccc(=O)oc2c1', 'inhibition', 100),
  ('O=c1ccc2ccc(/C=N/c3ccccc3)cc2o1', 'inhibition', 95.9),
  ('O=c1ccc2ccc(/C=N/Nc3ccccc3)cc2o1', 'inhibition', 64.5),
  ('O=c1ccc2ccccc2o1 [COUMARIN]', 'inhibition', 95.9),
  ('Cc1ccc2ccc(=O)oc2c1', 'inhibition', 100),
  ('CC(=O)CC(c1ccccc1)c1c(O)c2ccccc2oc1=O (stereo unspecified) [WARFARIN]', 'inhibition', 94.8),
  ('CO/N=C/c1ccc2ccc(=O)oc2c1', 'inhibition', 100),
  ('O=c1ccc2ccc(/C=N/O)cc2o1', 'inhibition', 77.7),
  ('CC(O)Cc1ccc2ccc(=O)oc2c1 (stereo unspecified)', 'inhibition', 95.4),
  ('O=Cc1ccc2ccc(=O)oc2c1', 'inhibition', 100);

From here, focus on the item given below.
Sample O=c1ccc2ccc(/C=N/N=C/c3ccc4ccc(=O)oc4c3)cc2o1 — what was its inhibition?
100

Sourced from ChEMBL document CHEMBL1147420
